- System: indian jointvetch
- assay_explanation: Herbicidal activity test against upland field weeds (foliar treatment test)
- Assay type: in vivo
- details: 50 g ai/ha, scale 0-100
assay_endpoint: pest or weed control at 50 g/ha

Consider the worked cases shown below.
compound=Cn1nnc(COCc2nc(C(F)(F)F)ccc2C(=S)Nc2nnnn2C)n1 obs_value=80%
compound=Cn1nnc(COCc2nc(C(F)F)ccc2C(=O)Nc2nnnn2C)n1 obs_value=70%
compound=Cn1nnnc1NC(=O)c1ccc(C(F)(F)F)nc1COCc1nc(S(C)(=O)=O)n(C)n1 obs_value=20%
compound=Cn1cnc(COCc2nc(C(F)(F)Cl)ccc2C(=O)Nc2nnnn2C)n1 obs_value=70%
compound=Cn1nnc(CSCc2nc(C(F)(F)F)ccc2C(=O)N(c2nnnn2C)S(C)(=O)=O)n1 obs_value=95%

Challenge: Query: pest or weed control at 50 g/ha; subject: Cn1nnnc1COc1nc(C(F)(F)F)ccc1C(=S)Nc1nnnn1C
Response given: 30%

Challenge: Query: pest or weed control at 50 g/ha; subject: C=CCn1nnnc1NC(=O)c1ccc(C(F)(F)F)nc1COCc1nc(C(F)F)n(C)n1
Response given: 60%

Challenge: Query: pest or weed control at 50 g/ha; subject: Cn1nc(COCc2nc(C(F)(F)F)ccc2C(=O)Nc2nnnn2C)nc1Cl
Response given: 95%
